- stated-conditions: in PEG-400, 308.15 K
measured-parameter: solubility (mole fraction)
Form field (numeric): enter value without unit.

Find the recorded solubility (mole fraction) belonging to `CN1C(C(=O)Nc2ccccn2)=C(O)c2sc(Cl)cc2S1(=O)=O` and report it.
0.0114

* * *

- stated-conditions: in ethyl acetate, 298.15 K
measured-parameter: solubility (mole fraction)
Lab note: record just the number, no unit beside it.

Item `CN1C(C(=O)Nc2ccccn2)=C(O)c2sc(Cl)cc2S1(=O)=O` has what recorded solubility (mole fraction)?
8.39e-05

* * *

- stated-conditions: in water, 323.15 K
measured-parameter: solubility (mole fraction)
Number only, no unit.

Looking for the measured solubility (mole fraction) of `CN1C(C(=O)Nc2ccccn2)=C(O)c2sc(Cl)cc2S1(=O)=O` , can you help?
1.19e-05
